System: ZIKV
protocol.details: microbe, parasite or virus in culture
Assay type: cell-based, Zika virus
test.parameters: read-out: ZIKV EC50
measured.endpoint: EC50

Some compounds with recorded EC50:
>>> assay_value("CC(=O)c1c(C)cc(O)c(=O)c(O)c1-c1ccccc1 [Compound 330]")
"32.7 µM"
>>> assay_value("O=c1c(O)cccc(SCCc2ccccc2)c1O [Compound 704]")
"19.5 µM"
>>> assay_value("CC(=Nc1ccccc1Cl)c1c(C)cc(=O)n(O)c1O [Compound 668]")
"> 120 µM"
>>> assay_value("O=C(Cc1ccccc1)Sc1cccccc1=O [Compound 680]")
"23 µM"
>>> assay_value("COC(=O)c1c(C)cc(O)c(=O)c(O)c1Br [Compound 335]")
"> 120 µM"

**Query** Please tell me: EC50 of CC[C@H](C)[C@H](NC(=O)OCC1c2ccccc2-c2ccccc21)C(=O)Sc1cccccc1=O [Compound 686] , system ZIKV?
**Result** > 120 µM

**Query** Please tell me: EC50 of CCCCCCSc1cccc(O)c(=O)c1O [Compound 840] , system ZIKV?
**Result** > 120 µM

**Query** Please tell me: EC50 of CC(=Nc1ccc(C(F)(F)F)cc1)c1c(C)cc(=O)n(O)c1O [Compound 517] , system ZIKV?
**Result** > 120 µM

**Query** Please tell me: EC50 of CCc1cccc(N=C(C)c2c(C)cc(=O)n(O)c2O)c1 [Compound 518] , system ZIKV?
**Result** > 120 µM

**Query** Please tell me: EC50 of CC(=O)c1c(C)cc(O)c(=O)c(O)c1Br [Compound 320] , system ZIKV?
**Result** > 120 µM

**Query** Please tell me: EC50 of O=C1C=CC(=O)c2ccccc21 [Compound 327] , system ZIKV?
**Result** > 120 µM

**Query** Please tell me: EC50 of Cc1cc(O)c(=O)c(O)cc1C(=O)N1CCCCC1 [Compound 390] , system ZIKV?
**Result** > 120 µM

====

Test system: RVFV strain MP-12
protocol.details: microbe, parasite or virus in culture
Type: cell-based, Rift Valley fever virus
test.parameters: Rift Valley fever virus, A549, 24 h, read-out: A549 EC50
measured.endpoint: EC50
Remember to put the unit after the number in your answer.

Some compounds with recorded EC50:
>>> assay_value("C/C(=N\\c1ccc(Cl)c(Cl)c1)c1c(C)cc(O)n(O)c1=O")
"15.3 µM"
>>> assay_value("Cc1cc(O)c(=O)c(O)cc1C(=O)N[C@@H](CCC(=O)OC(C)(C)C)C(=O)OC(C)(C)C")
"33 µM"
>>> assay_value("Cc1cc(O)c(=O)c(O)cc1C(=O)c1cccs1")
"8.4 µM"

**Query** I am curious: what EC50 value has been reported for CCCCNC(=O)c1cc(O)c(=O)c(O)cc1C ?
**Result** 15.5 µM

**Query** I am curious: what EC50 value has been reported for O=C(Cc1ccccc1)Sc1cccccc1=O ?
**Result** 11.6 µM

**Query** I am curious: what EC50 value has been reported for Cc1cc(O)c(=O)c(O)cc1C(=O)c1ccco1 ?
**Result** 5.9 µM

====

measurement.target: Human RNase H1 (Homo sapiens, UniProt O60930)
Construct: made in house; host or cells: E. coli
Sequence (O60930 1-286): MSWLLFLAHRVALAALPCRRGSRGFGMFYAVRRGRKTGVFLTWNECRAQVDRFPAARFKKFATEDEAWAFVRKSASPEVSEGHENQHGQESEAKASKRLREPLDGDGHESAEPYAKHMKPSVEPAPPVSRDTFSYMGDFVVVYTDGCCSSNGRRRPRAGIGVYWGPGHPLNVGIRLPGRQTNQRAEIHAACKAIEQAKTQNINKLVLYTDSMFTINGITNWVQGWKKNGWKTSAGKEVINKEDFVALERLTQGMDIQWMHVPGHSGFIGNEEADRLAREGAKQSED
protocol.details: biochemical
test.parameters: read-out: Human RNase H1 (IC50)
measured.endpoint: pIC50
Worth noting: pIC50 values are minus log10 of concentrations stated in mol/L.

Some compounds with recorded pIC50:
>>> assay_value("Cc1cc(O)c(=O)c(O)cc1C(=O)c1ccc(Br)cc1")
4.37
>>> assay_value("Cc1cc(O)c(=O)c(O)cc1C(=O)c1ccccc1")
4.32
>>> assay_value("Cc1cc(O)c(=O)c(O)cc1C(=O)NCc1ccccc1")
3.78
>>> assay_value("CSc1cccc(O)c(=O)c1O")
3.75
>>> assay_value("Cc1cc(O)c(=O)c(O)cc1C(=O)c1ccccc1O")
4.59
>>> assay_value("O=c1c(O)cccc(SCCc2ccccc2)c1O")
4.60
>>> assay_value("O=c1c(O)cccc(S(=O)(=O)c2cccc3ccccc23)c1O")
3.58
>>> assay_value("Cc1ccc(O)c(=O)c(O)c1")
4.07
>>> assay_value("CC(=Nc1ccccc1Cl)c1c(C)cc(=O)n(O)c1O")
3.78
>>> assay_value("Cc1ccc(Sc2cccc(O)c(=O)c2O)cc1")
4.00

**Query** I am curious: what pIC50 value has been reported for CCCCCCSc1cccc(O)c(=O)c1O ?
**Result** 4.14

**Query** I am curious: what pIC50 value has been reported for CCc1cccc(N=C(C)c2c(C)cc(=O)n(O)c2O)c1 ?
**Result** 3.36

**Query** I am curious: what pIC50 value has been reported for Cc1cc(O)c(=O)c(O)cc1C(=O)C1CCCCC1 ?
**Result** 4.09

**Query** I am curious: what pIC50 value has been reported for COC(=O)c1c(C)cc(O)c(=O)c(O)c1Br ?
**Result** 3.95

**Query** I am curious: what pIC50 value has been reported for CC(=O)c1c(C)cc(O)c(=O)c(O)c1Br ?
**Result** 4.43

Cited source for all entries: paper PMC9481026
